Experiment: chemical genetic growth profiling, strain panel (AID 1159580);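 further: tested at 20 µM; growth read once vehicle control cultures reached saturation at 30 °C; lower values mean less growth of the strain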
Details: S. cerevisiae deletion strains, growth OD, locus YIL073C, strain SPO22
The campaign covered roughly 5,500 compounds. About 2,000 (36%) were called active. About 18% were inconclusive and are not listed. No stated cut-off is given here; in the data, active means normalized growth mostly below about 0.91 (no sharp cut-off); inconclusive means no clear call, values can overlap the other calls; inactive means mostly above about 0.92. Some of the results follow.
Select the matching outcome among active, inactive

Here are 5 compounds together with their reported answers.
{"Compound": "C#C[C@]1(O)CCC2C3CCC4=Cc5oncc5C[C@]4(C)C3CC[C@@]21C (stereo partly drawn)", "Cat": "inactive"}
{"Compound": "O=C(O)c1cc(=O)c2cccc(O)c2[nH]1", "Cat": "inactive"}
{"Compound": "CCOc1cccc(C(=O)c2ccc(O)c(O)c2O)c1", "Cat": "active"}
{"Compound": "CC(=O)O[C@H]1CC[C@]2(C)C3CC[C@@]4(C)C(CC5O[C@@]6(CCC(C)CO6)[C@@H](C)C54)C3CC[C@@H]2C1 (stereo partly drawn)", "Cat": "inactive"}
{"Compound": "C[C@]12CCC(=O)C=C1CCC1C2C(=O)C[C@@]2(C)C1CC[C@]2(O)C(=O)CO (stereo partly drawn)", "Cat": "inactive"}

(Q) Give the logged outcome of this assay for the following compound: "COc1ccc(C(=O)O)c(O)c1OC"
(A) inactive

(Q) Give the logged outcome of this assay for the following compound: "CCOc1ccc(C(=O)c2cc(O)c(OC)c(OC)c2O)cc1"
(A) inactive

(Q) Give the logged outcome of this assay for the following compound: "COc1cc(NS(=O)(=O)c2ccc(N)cc2)ncn1"
(A) inactive
